# Tested on: Balb/c splenic B cells
# EXPERIMENT SUMMARY: B cell activation and proliferation assay (Alamar Blue)
# Type: cell-based
# CONDITION DESCRIPTION: Mus musculus, read-out: B cell proliferation EC50
pEC50: −log10 of the molar value.
MEASUREMENT NAME: pEC50

[[record]]
compound = "Cc1cccc2cc(Cn3nc(C#C[C@@H](C)O)c4c(N)ncnc43)n(-c3ccccc3O)c(=O)c12 [Compound 91]"
measurement_target = "Balb/c splenic B cells"
result = "> 6.00"


pEC50 measured on CCn1c(Cn2nc(-c3ccc4nc(NC(C)=O)sc4c3)c3c(N)ncnc32)cc2cccc(C)c2c1=O [Compound 176] = > 7.00

pEC50 measured on Cc1cccc2cc(Cn3nc(C#C[C@@H](C)O)c4c(N)ncnc43)n(C3CCCCC3)c(=O)c12 [Compound 112] = > 5.00

pEC50 measured on Cc1ccccc1-n1c(Cn2nc(/C=C/C(N)=O)c3c(N)ncnc32)cc2cccc(C)c2c1=O [Compound 174] = > 7.00

====

# Test system: Balb/c splenic B cells
# EXPERIMENT SUMMARY: B cell activation and proliferation assay (Alamar Blue)
# Format: cell-based
# CONDITION DESCRIPTION: Mus musculus, read-out: B cell proliferation EC50
MEASUREMENT NAME: EC50

[[record]]
smiles_representation = "CNC(=O)Nc1nc2ccc(-c3nn(Cc4cc5cccc(C)c5c(=O)n4-c4ccccc4C)c4ncnc(N)c34)cc2s1"
result = "< 100 nM"

[[record]]
smiles_representation = "Cc1ccnc2nc(Cn3nc(C#CC4CC4)c4c(N)ncnc43)n(-c3ccccc3Cl)c(=O)c12"
result = "< 10000 nM"

[[record]]
smiles_representation = "Cc1cccnc1-n1c(Cn2nc(C#C[C@@H](C)O)c3c(N)ncnc32)cc2cccc(C)c2c1=O"
result = "< 1000 nM"

[[record]]
smiles_representation = "CC(=O)Nc1nc2ccc(-c3nn(Cc4cc5cccc(F)c5c(=O)n4C(C)C)c4ncnc(N)c34)cc2s1"
result = "< 100 nM"

[[record]]
smiles_representation = "CC(C)n1c(Cn2nc(-c3cccc(O)c3)c3c(N)ncnc32)cc2ccccc2c1=O"
result = "< 1000 nM"


EC50 measured on Cc1cccc2cc(Cn3nc(I)c4c(N)ncnc43)n(C3CCC3)c(=O)c12 = < 1000 nM

EC50 measured on Cc1cccc2cc(Cn3nc(-c4cc(O)cc(F)c4)c4c(N)ncnc43)n(-c3ccccc3)c(=O)c12 = < 100 nM

====

Below, each of the molecules is paired with its reported pIC50 value.
# MEASUREMENT TARGET: PI3K γ (Homo sapiens, UniProt P48736)
# Sequence (P48736 whole entry): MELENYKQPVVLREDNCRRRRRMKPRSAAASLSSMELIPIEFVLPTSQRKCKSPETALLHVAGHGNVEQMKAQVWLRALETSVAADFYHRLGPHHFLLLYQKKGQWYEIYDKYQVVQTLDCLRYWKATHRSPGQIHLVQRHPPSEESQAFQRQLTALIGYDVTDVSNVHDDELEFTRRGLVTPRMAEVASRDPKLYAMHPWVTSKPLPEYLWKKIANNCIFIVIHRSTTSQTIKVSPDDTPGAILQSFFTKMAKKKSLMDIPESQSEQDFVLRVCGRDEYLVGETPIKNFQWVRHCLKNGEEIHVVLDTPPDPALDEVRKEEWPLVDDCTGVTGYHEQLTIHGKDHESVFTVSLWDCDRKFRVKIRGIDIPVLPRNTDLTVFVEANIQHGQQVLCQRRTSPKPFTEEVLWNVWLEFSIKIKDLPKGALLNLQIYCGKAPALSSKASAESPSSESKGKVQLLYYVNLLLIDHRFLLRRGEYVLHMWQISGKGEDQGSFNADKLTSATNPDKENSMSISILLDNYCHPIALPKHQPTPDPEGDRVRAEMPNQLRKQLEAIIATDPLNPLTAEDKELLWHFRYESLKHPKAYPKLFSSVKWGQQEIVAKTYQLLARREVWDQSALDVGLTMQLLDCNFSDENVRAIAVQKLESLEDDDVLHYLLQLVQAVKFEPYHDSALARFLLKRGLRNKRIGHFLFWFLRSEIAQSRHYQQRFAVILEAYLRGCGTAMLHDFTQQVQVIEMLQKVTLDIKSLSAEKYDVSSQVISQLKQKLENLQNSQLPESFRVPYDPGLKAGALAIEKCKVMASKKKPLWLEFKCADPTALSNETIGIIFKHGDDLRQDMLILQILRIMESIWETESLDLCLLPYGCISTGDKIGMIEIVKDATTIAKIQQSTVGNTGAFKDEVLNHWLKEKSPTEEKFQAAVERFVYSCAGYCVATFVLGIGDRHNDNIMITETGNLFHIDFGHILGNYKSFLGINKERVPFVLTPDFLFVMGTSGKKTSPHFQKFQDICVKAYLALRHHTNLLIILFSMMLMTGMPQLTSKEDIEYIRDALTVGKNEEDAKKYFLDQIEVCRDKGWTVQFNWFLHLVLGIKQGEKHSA
pIC50: −log10 of the molar value.

Check out these entries, answers already filled in.
[[record]]
molecule = "CCc1ccccc1-n1c(Cn2nc(-c3cccc(O)c3)c3c(N)ncnc32)nc2scc(C)c2c1=O [Compound 290]"
measurement_target = "PI3K γ (Homo sapiens, UniProt P48736)"
result = "> 7.00"

[[record]]
molecule = "Cc1ccccc1-n1c(Cn2nc(Cl)c3c(N)ncnc32)nc2scc(C)c2c1=O [Compound 249]"
measurement_target = "PI3K γ (Homo sapiens, UniProt P48736)"
result = "> 6.00"

[[record]]
molecule = "CCc1ccccc1-n1c(Cn2nc(Br)c3c(N)ncnc32)nc2scc(C)c2c1=O [Compound 283]"
measurement_target = "PI3K γ (Homo sapiens, UniProt P48736)"
result = "> 7.00"


In the following, a different molecule is considered.
The molecule Cc1ccccc1N1C(=O)C2C(C=NN2C)N=C1Cn1nc(-c2cc(O)cc(F)c2)c2c(N)ncnc21 (stereo not shown) [Compound 221] , tested on PI3K γ (Homo sapiens, UniProt P48736), showed pIC50 of < 5.00

====

# System: Balb/c splenic B cells
# EXPERIMENT SUMMARY: B cell activation and proliferation assay (Alamar Blue)
# Assay type: cell-based
# CONDITION DESCRIPTION: Mus musculus, read-out: B cell proliferation EC50
MEASUREMENT NAME: EC50

[[record]]
smiles_representation = "Cc1cccc2cc(Cn3nc(I)c4c(N)ncnc43)n(C3CC3)c(=O)c12"
result = "< 1000 nM"


In the following, a different molecule is considered.
EC50 measured on Cc1ccccc1-n1c(Cn2nc(-c3cnc4[nH]ccc4c3)c3c(N)ncnc32)cc2cccc(C)c2c1=O = < 100 nM

====

# Test system: Balb/c splenic B cells
# EXPERIMENT SUMMARY: B cell activation and proliferation assay (Alamar Blue)
# Assay type: cell-based
# CONDITION DESCRIPTION: Mus musculus, read-out: B cell proliferation EC50
pEC50: −log10 of the molar value.
MEASUREMENT NAME: pEC50

[[record]]
smiles_representation = "Cc1cccc2cc(Cn3nc(/C=C4/SC(=O)NC4=O)c4c(N)ncnc43)n(-c3ccccc3F)c(=O)c12"
measurement_name = "pEC50"
result = "> 7.00"


pEC50 measured on Cc1ccccc1-n1c(Cn2nc(-c3ccc4cc[nH]c4c3)c3c(N)ncnc32)cc2cccc(C)c2c1=O = > 6.00

pEC50 measured on Cc1ccccc1-n1c(Cn2nc(C#CC3CC3)c3c(N)ncnc32)cc2nccc(C)c2c1=O = > 6.00

pEC50 measured on CCc1ccccc1-n1c(Cn2nc(C#C[C@@H](C)O)c3c(N)ncnc32)cc2cccc(C)c2c1=O = > 7.00

pEC50 measured on Cc1ccccc1-n1c(Cn2nc(C#C[C@@H](C)O)c3c(N)ncnc32)cc2cccc(C)c2c1=O = > 7.00

pEC50 measured on Cc1cccnc1-n1c(Cn2nc(-c3cc(O)cc(F)c3)c3c(N)ncnc32)cc2cccc(C)c2c1=O = > 7.00

pEC50 measured on Cc1ccncc1-n1c(Cn2nc(I)c3c(N)ncnc32)cc2cccc(C)c2c1=O = > 6.00

pEC50 measured on Cc1ccccc1-n1c(Cn2nc(-c3cc(O)cc(F)c3)c3c(N)ncnc32)cc2cccc(F)c2c1=O = > 7.00

pEC50 measured on Cc1cccc2cc(Cn3nc(I)c4c(N)ncnc43)n(-c3ccccc3Cl)c(=O)c12 = > 6.00

pEC50 measured on Cc1ccccc1-n1c(Cn2nc(-c3cn[nH]c3)c3c(N)ncnc32)cc2cccc(C)c2c1=O = > 7.00

pEC50 measured on Cc1csc2nc(Cn3nc(-c4ccc(F)c(O)c4)c4c(N)ncnc43)n(-c3ccccc3F)c(=O)c12 = > 7.00

pEC50 measured on CC(=O)Nc1nc2ccc(-c3nn(Cc4cc5cccc(C)c5c(=O)n4C4CCC4)c4ncnc(N)c34)cc2s1 = > 7.00

pEC50 measured on Cc1cccc2cc(Cn3nc(-c4cccc(O)c4)c4c(N)ncnc43)n(C(C)C)c(=O)c12 = > 7.00

pEC50 measured on Cc1ccccc1-n1c(Cn2nc(-c3ccc(F)c(O)c3)c3c(N)ncnc32)cc2ccccc2c1=O = > 7.00

pEC50 measured on Cc1ccccc1-n1c(Cn2nc(C#N)c3c(N)ncnc32)cc2cccc(C)c2c1=O = > 7.00

pEC50 measured on Cc1ccccc1-n1c(Cn2nc(Br)c3c(N)ncnc32)nc2scc(C)c2c1=O = > 7.00

====

# Test system: Balb/c splenic B cells
# EXPERIMENT SUMMARY: B cell activation and proliferation assay (Alamar Blue)
# Assay type: cell-based
# CONDITION DESCRIPTION: Mus musculus, read-out: B cell proliferation EC50
MEASUREMENT NAME: EC50

EC50 measured on Cc1ccccc1-n1c(Cn2nc(-c3ccc(F)cc3)c3c(N)ncnc32)cc2cccc(C)c2c1=O = < 10000 nM

EC50 measured on Cc1cccc2cc(Cn3nc(I)c4c(N)ncnc43)n(-c3ccccc3C(C)C)c(=O)c12 = < 100 nM

EC50 measured on Cc1ccccc1-n1c(Cn2nc(C#CC3CC3)c3c(N)ncnc32)cc2cccc(C)c2c1=O = < 1000 nM

EC50 measured on Cc1ccccc1-n1c(Cn2nc(/C=C3/SC(=O)NC3=O)c3c(N)ncnc32)cc2cccc(C)c2c1=O = < 100 nM

EC50 measured on Cc1cccc2cc(Cn3nc(-c4cc(O)cc(F)c4)c4c(N)ncnc43)n(-c3ccccc3O)c(=O)c12 = < 100 nM

EC50 measured on COc1cccc(-c2nn(Cc3cc4cccc(C)c4c(=O)n3-c3ccccc3C)c3ncnc(N)c23)c1 = < 1000 nM

EC50 measured on Cc1cccc2cc(Cn3nc(-c4ccc(Cl)c(O)c4)c4c(N)ncnc43)n(C(C)C)c(=O)c12 = < 100 nM

====

Below, each of the compounds is paired with its reported EC50 value.
# Test system: Balb/c splenic B cells
# EXPERIMENT SUMMARY: B cell activation and proliferation assay (Alamar Blue)
# Assay type: cell-based
# CONDITION DESCRIPTION: Mus musculus, read-out: B cell proliferation EC50

Check out these entries, answers already filled in.
[[record]]
compound = "Cc1cccc2cc(Cn3nc(-c4ccc(O)c(Cl)c4)c4c(N)ncnc43)n(-c3ccccc3F)c(=O)c12"
measurement_target = "Balb/c splenic B cells"
result = "< 10000 nM"

[[record]]
compound = "Cc1cccc2cc(C(C)Nc3ncnc4[nH]cnc34)n(-c3ccccc3F)c(=O)c12 (stereo not shown)"
measurement_target = "Balb/c splenic B cells"
result = "< 100 nM"

[[record]]
compound = "Cc1ccccc1-n1c(Cn2nc(C#C[C@@H](C)O)c3c(N)ncnc32)cc2cccc(F)c2c1=O"
measurement_target = "Balb/c splenic B cells"
result = "< 10000 nM"

[[record]]
compound = "COc1ccc(-c2nn(Cc3cc4cccc(C)c4c(=O)n3-c3ccccc3C)c3ncnc(N)c23)cc1OC"
measurement_target = "Balb/c splenic B cells"
result = "< 100 nM"

[[record]]
compound = "COc1cc(-c2nn(Cc3cc4cccc(C)c4c(=O)n3-c3ccccc3C)c3ncnc(N)c23)ccc1Cl"
measurement_target = "Balb/c splenic B cells"
result = "< 1000 nM"

[[record]]
compound = "Cc1ccnc2cc(Cn3nc(-c4cc(O)cc(F)c4)c4c(N)ncnc43)n(-c3ccccc3F)c(=O)c12"
measurement_target = "Balb/c splenic B cells"
result = "< 100 nM"


In the following, a different compound is considered.
The compound Cc1csc2nc(Cn3nc(Cl)c4c(N)ncnc43)n(-c3ccccc3C(F)(F)F)c(=O)c12 , tested on Balb/c splenic B cells, showed EC50 of < 100 nM
